# experimental.protocol: Inhibition of CRAC in rat RBL2H3 cells assessed blockade of IP3-induced calcium flux pretreated for 30 to 60 mins followed by IP3 addition by Qpatch analysis
# Assay type: cell-based
# condition.context: RBL-2H3
pIC50: −log10 of the molar value.
property: pIC50

INSERT INTO measurements (query_smiles, property, reported) VALUES
  ('CC1=C(c2cnc(NC(=O)c3c(F)cccc3F)cn2)CN(c2ncc(C)s2)CC1', 'pIC50', 6.40);

----------
# assayed.system: Calcium release-activated calcium channel protein 1 (Homo sapiens, UniProt Q96D31)
# Sequence (Q96D31 whole entry): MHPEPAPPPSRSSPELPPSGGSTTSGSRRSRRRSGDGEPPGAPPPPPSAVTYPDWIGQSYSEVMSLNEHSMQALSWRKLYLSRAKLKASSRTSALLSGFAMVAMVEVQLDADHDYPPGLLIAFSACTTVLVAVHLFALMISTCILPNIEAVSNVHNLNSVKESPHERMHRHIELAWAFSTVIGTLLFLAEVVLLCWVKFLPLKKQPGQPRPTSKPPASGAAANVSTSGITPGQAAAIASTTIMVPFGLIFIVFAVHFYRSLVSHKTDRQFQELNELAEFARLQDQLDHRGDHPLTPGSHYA
# experimental.protocol: Inhibition of […] Orai1-medited store operated calcium entry in human MDA-MB-231 cells pretreated for 15 mins followed by BAPTA addition by PBX dye based FLIPR assay
property: IC50 (µM)

INSERT INTO assay_data (compound, reported) VALUES
  ('O=C(Cc1ccccc1)N1N=C(c2cccc(F)c2F)CC1(O)C(F)(F)F (stereo not given)', 55),
  ('Cc1cccc(C2=NN(C(=O)Cc3ccccc3)C(O)(C(F)(F)F)C2)c1 (stereo not given)', 36),
  ('O=C(Cc1ccccc1)N1N=C(c2cccc(C(F)(F)F)c2)CC1(O)C(F)(F)F (stereo not given)', 29),
  ('O=C(Cc1ccccc1)N1N=C(c2cccc(Cl)c2)CC1(O)C(F)(F)F (stereo not given)', 48),
  ('Cc1cccc(C2=NN(C(=O)Cc3cccc(Cl)c3)C(O)(C(F)(F)F)C2)c1 (stereo not given)', 75);

----------
# experimental.protocol: Lipophilicity, log P of the compound
# Assay type: physicochemical
# condition.context: octanol/water
property: logP

INSERT INTO measurements (molecule, property, reported) VALUES
  ('COc1cccc(C2(O)CC(C(F)(F)F)=NN2C(=O)Cc2ccccc2)c1 (stereo unspecified)', 'logP', 4.4);

----------
# assayed.system: Calcium release-activated calcium channel protein 1 (Homo sapiens)
# experimental.protocol: Inhibition of […] Orai1-medited store operated calcium entry in human MDA-MB-231 cells pretreated for 15 mins followed by BAPTA addition by PBX dye based FLIPR assay
Friendly reminder: IC50 below 50 µM is true, at or above is false.

INSERT INTO measurements (compound, class_name) VALUES
  ('O=C(Cc1ccccc1)N1N=C(c2cccc([N+](=O)[O-])c2)CC1(O)C(F)(F)F (stereo not given)', 'false'),
  ('Cc1cccc(CC(=O)N2N=C(c3cccc(C)c3)CC2(O)C(F)(F)F)c1 (stereo not given)', 'true'),
  ('O=C(Cc1ccccc1)N1N=C(c2ccccc2Br)CC1(O)C(F)(F)F (stereo not given)', 'true'),
  ('Cc1ccc(CC(=O)N2N=C(c3cccc(C)c3)CC2(O)C(F)(F)F)cc1 (stereo not given)', 'true'),
  ('O=C(Cc1ccccc1)N1N=C(c2cccc(Br)c2)CC1(O)C(F)(F)F (stereo not given)', 'true');

Data provenance: ChEMBL document CHEMBL4118190
